assay: Volume of distribution at steady state in Harlan nu/nu mouse at 10 mg/kg, iv administered as single dose by LC-MS/MS analysis; settings: in vivo
Values of Vd strictly less than 3 L/kg map to 1.0, and values of at least 3 L/kg map to 0.0.

> print(dat)
                            chemical.string  label.value
1  O=C(Nc1n[nH]c2ccc(Cc3cc(F)cc(F)c3)cc12)c1ccc(N2CCNCC2)cc1NC1CCOCC1          1.0
2  CN1CCC(Oc2ccc(C(=O)Nc3n[nH]c4ccc(Cc5cc(F)cc(F)c5)cc34)c(NC3CCOCC3)c2)CC1          1.0
3  CN1CCN(c2ccc(C(=O)Nc3n[nH]c4ccc(Cc5cc(F)cc(F)c5)cc34)c(NCCF)c2)CC1          0.0
4  CN(C)CCN(C)C(=O)c1ccc(C(=O)Nc2n[nH]c3ccc(Cc4cc(F)cc(F)c4)cc23)c(NC2CCOCC2)c1          0.0
5  O=C(Nc1n[nH]c2ccc(Cc3cc(F)cc(F)c3)cc12)c1ccc(CN2CCCCC2)cc1NC1CCOCC1          1.0

* * *

assay: Inhibition of SULU1 (unknown origin) in presence of gamma33-ATP; set-up: species or system Homo sapiens
Property: IC50

> print(dat)
                                   compound  property    value
1  CN1CCN(c2ccc(C(=O)Nc3n[nH]c4ccc(Cc5cc(F)cc(F)c5)cc34)c(NC3CCOCC3)c2)CC1 [ENTRECTINIB]      IC50  > 10 µM

* * *

test: Half life in Sprague-Dawley rat at 10 mg/kg, iv administered as single dose by LC-MS/MS analysis; type: ADME, organism-based; details: in vivo
Property: half-life (h)

> print(dat)
                                   compound  value
1  CN1CCN(c2ccc(C(=O)Nc3n[nH]c4ccc(Cc5cc(F)cc(F)c5)cc34)c(NC3CCOCC3)c2)CC1 [ENTRECTINIB]    3.5

* * *

system: NCI-H2228; assay: Antiproliferative activity against human NCI-H2228 cells expressing ALK protein incubated for 72 hrs by cell titer-glo assay; conditions: NCI-H2228, 72 h
pIC50: −log10 of the molar value.
Property: pIC50

> print(dat)
                            chemical.string  target.system  value
1  CN1CCN(c2ccc(C(=O)Nc3n[nH]c4ccc(Cc5cc(F)cc(F)c5)cc34)c(NC3CCOCC3)c2)CC1      NCI-H2228   7.17

* * *

assay: Clearance in Sprague-Dawley rat at 10 mg/kg, iv administered as single dose by LC-MS/MS analysis; type: ADME, organism-based; conditions: in vivo
Property: clearance (mL/min/kg)

> print(dat)
                            chemical.string        uom  value
1  CN1CCN(c2ccc(C(=O)Nc3n[nH]c4ccc(Cc5cc(F)cc(F)c5)cc34)c(NC3CCOCC3)c2)CC1  mL/min/kg   20.8

* * *

assay: Solubility of compound at pH 7 buffer; assay type: physicochemical
Quick reference for solubility among some molecules
Property: solubility (µM)

> print(dat)
                                   molecule    property  value
1  CN1CCN(c2ccc(C(=O)Nc3n[nH]c4ccc(Cc5cc(F)cc(F)c5)cc34)c(NC3CCOCC3)c2)CC1 [ENTRECTINIB]  solubility     20
2  O=C(Nc1n[nH]c2ccc(Cc3cc(F)cc(F)c3)cc12)c1ccc(CN2CCCCC2)cc1NC1CCOCC1  solubility     84
3  O=C(Nc1n[nH]c2ccc(Cc3cc(F)cc(F)c3)cc12)c1ccc(N2CCNCC2)cc1NC1CCOCC1  solubility    103
